Attribute: pIC50
- EXPERIMENTAL_SYSTEM: human TRPV4 (Homo sapiens)
- Construct: host or cells: tetracycline-inducible Flp-In T-REx 293 cells
- ASSAY_NAME: Hypotonicity-induced Ca2+ influx (Fluo-4, FDSS)
- Type: cell-based
- SETUP_CONDITIONS: Flp-In T-REx 293 cells stably expressing human TRPV4, compounds listed by potency bin (<10 nM Tables 96-1/96-2, <3 nM Table 97)
pIC50: −log10 of the molar value.

Examples with their reported pIC50 follow.
compound="O=C(C(O)c1cccc(-c2cccc(OC(F)(F)F)c2)c1)N1CCc2nc(C3(c4cccc(F)c4)CC3)[nH]c(=O)c2C1 (stereo not shown) [14-7]" experimental_system="human TRPV4 (Homo sapiens)" readout_type=pIC50 observed_measurement="> 8.00"
compound="O=C([C@H](O)c1cccc(-c2cccc(C(F)(F)F)c2)c1)N1CCCc2c(nc(C3(c4ccccc4)CC3)[nH]c2=O)C1 [49-54]" experimental_system="human TRPV4 (Homo sapiens)" readout_type=pIC50 observed_measurement="> 8.00"
compound="CN(C)c1ccc(-c2cccc(C3(c4nc5c(c(=O)[nH]4)CN(C(=O)[C@H](O)c4cccc(C(F)(F)F)c4)CCC5)CC3)c2)cc1 [42-11]" experimental_system="human TRPV4 (Homo sapiens)" readout_type=pIC50 observed_measurement="> 8.52"

Next up:
Return the recorded pIC50 value; entry: CC(C)c1cncc(C2(c3nc4c(c(=O)[nH]3)CN(C(=O)C(F)(F)c3cccc(Cl)c3F)CCC4)CC2)c1 [22-8]
> 8.00

* * *

- EXPERIMENTAL_SYSTEM: human TRPV4 (Homo sapiens)
- Construct: host or cells: tetracycline-inducible Flp-In T-REx 293 cells
- ASSAY_NAME: Hypotonicity-induced Ca2+ influx (Fluo-4, FDSS)
- Type: cell-based
- SETUP_CONDITIONS: Flp-In T-REx 293 cells stably expressing human TRPV4, compounds listed by potency bin (<10 nM Tables 96-1/96-2, <3 nM Table 97)
- Procedure: Hypotonicity-Induced Ca^2+ Influx TRPV4 channel activation/opening results in an influx of Ca^2+ (Liedtke, W. et al., 2000 (NPL 1)). The resulting changes in intracellular calcium are monitored using a Ca^2+ sensitive fluorescent dye Fluo-4 (Invitrogen). Dye loaded cells are treated with the test compounds for 5 minutes prior to the addition of a hypotonic solution and the inhibition of the hypotonicity-induced activation is recorded. […]
pIC50: −log10 of the molar value.
READOUT_TYPE: pIC50

compound=CC(C)c1cccc(-c2cccc([C@@H](O)C(=O)N3CCCc4nc(C5(c6cccc(-c7csc8ccccc78)c6)CC5)[nH]c(=O)c4C3)c2)c1 observed_measurement="> 8.00"

Find the measured pIC50 of O=C(Cc1cccc2ccccc12)N1CCCc2nc(C3(c4cccc(Cl)c4)CC3)[nH]c(=O)c2C1 with human TRPV4 (Homo sapiens) as test system.
> 8.00

Find the measured pIC50 of O=C(C(O)c1cccc(-c2cccc(C(F)(F)F)c2)c1)N1CCc2nc(C3(c4cccs4)CC3)[nH]c(=O)c2C1 (centres unmarked) with human TRPV4 (Homo sapiens) as test system.
> 8.00

Find the measured pIC50 of O=C([C@H](O)c1cccc(C(F)(F)F)c1)N1CCCc2nc(C3(c4cccc(-c5cc6ccccc6s5)c4)CC3)[nH]c(=O)c2C1 with human TRPV4 (Homo sapiens) as test system.
> 8.00

Find the measured pIC50 of O=C([C@H](O)c1cccc(C(F)(F)F)c1)N1CCCc2nc(C3(c4cccc(-c5ccncc5)c4)CC3)[nH]c(=O)c2C1 with human TRPV4 (Homo sapiens) as test system.
> 8.00

Find the measured pIC50 of O=C([C@H](O)c1cccc(C(F)(F)F)c1)N1CCc2nc(C3(c4cc(C5CCCCCC5)cs4)CC3)[nH]c(=O)c2C1 with human TRPV4 (Homo sapiens) as test system.
> 8.52

Find the measured pIC50 of O=C([C@H](O)c1cccc(Cl)c1)N1CCCc2nc(C3(c4cc(C5CCOCC5)cs4)CC3)[nH]c(=O)c2C1 with human TRPV4 (Homo sapiens) as test system.
> 8.00

Find the measured pIC50 of N#Cc1cc(C#N)cc(-c2cccc(C3(c4nc5c(c(=O)[nH]4)CN(C(=O)[C@H](O)c4cccc(C(F)(F)F)c4)CCC5)CC3)c2)c1 with human TRPV4 (Homo sapiens) as test system.
> 8.00

Find the measured pIC50 of O=C(Cc1cccc(-c2cccc(C(F)(F)F)c2)c1)N1CCCc2nc(C3(c4cccc(-c5csc6ccccc56)c4)CC3)[nH]c(=O)c2C1 with human TRPV4 (Homo sapiens) as test system.
> 8.00

Find the measured pIC50 of O=C([C@H](O)c1cccc(C(F)(F)F)c1)N1CCCc2nc(C3(c4cccc(-c5cnc(-c6ccccc6)o5)c4)CC3)[nH]c(=O)c2C1 with human TRPV4 (Homo sapiens) as test system.
> 8.00

Find the measured pIC50 of O=C(Cc1cccc(-c2cccc(Cl)c2)c1)N1CCCc2nc(C3(c4cccc(-c5csc6ccccc56)c4)CC3)[nH]c(=O)c2C1 with human TRPV4 (Homo sapiens) as test system.
> 8.00

Find the measured pIC50 of O=C([C@H](O)c1cccc(-c2cc(C(F)(F)F)cc(C(F)(F)F)c2)c1)N1CCCc2nc(C3(c4ccccc4)CC3)[nH]c(=O)c2C1 with human TRPV4 (Homo sapiens) as test system.
> 8.00

Find the measured pIC50 of O=C(C(O)c1cccc(C(F)(F)F)c1F)N1CCCc2nc(C3(c4cccs4)CC3)[nH]c(=O)c2C1 (centres unmarked) with human TRPV4 (Homo sapiens) as test system.
> 8.52

Find the measured pIC50 of O=C([C@H](O)c1cccc(-c2cccc(Cl)c2)c1)N1CCCc2nc(C3(c4cncc(C5CCCCC5)c4)CC3)[nH]c(=O)c2C1 with human TRPV4 (Homo sapiens) as test system.
> 8.00

* * *

Attribute: pIC50
- EXPERIMENTAL_SYSTEM: human TRPV4 (Homo sapiens, UniProt Q9HBA0)
- Construct: host or cells: tetracycline-inducible Flp-In T-REx 293 cells
- Sequence (Q9HBA0 whole entry): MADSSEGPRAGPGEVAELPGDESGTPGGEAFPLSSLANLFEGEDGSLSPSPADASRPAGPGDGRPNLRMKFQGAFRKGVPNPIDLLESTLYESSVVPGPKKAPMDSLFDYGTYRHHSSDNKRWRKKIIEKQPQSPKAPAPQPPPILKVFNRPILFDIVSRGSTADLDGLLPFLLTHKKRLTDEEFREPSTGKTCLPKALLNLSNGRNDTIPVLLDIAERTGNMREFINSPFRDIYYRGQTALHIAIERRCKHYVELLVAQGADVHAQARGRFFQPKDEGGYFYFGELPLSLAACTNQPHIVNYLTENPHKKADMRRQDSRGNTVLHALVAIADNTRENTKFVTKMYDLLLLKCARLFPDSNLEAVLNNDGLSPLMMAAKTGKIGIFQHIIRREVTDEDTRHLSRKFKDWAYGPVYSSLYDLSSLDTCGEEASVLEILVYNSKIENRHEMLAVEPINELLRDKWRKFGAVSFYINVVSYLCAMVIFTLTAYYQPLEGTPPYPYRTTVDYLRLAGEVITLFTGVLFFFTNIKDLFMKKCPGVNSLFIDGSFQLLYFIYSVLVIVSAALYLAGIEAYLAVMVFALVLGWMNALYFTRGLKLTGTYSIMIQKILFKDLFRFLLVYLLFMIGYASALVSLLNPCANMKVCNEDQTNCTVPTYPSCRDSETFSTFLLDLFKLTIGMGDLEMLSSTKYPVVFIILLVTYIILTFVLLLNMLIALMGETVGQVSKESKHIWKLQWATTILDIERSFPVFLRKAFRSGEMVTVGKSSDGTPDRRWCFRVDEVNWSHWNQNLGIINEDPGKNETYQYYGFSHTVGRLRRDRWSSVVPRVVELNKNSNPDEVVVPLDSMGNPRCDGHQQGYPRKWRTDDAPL
- ASSAY_NAME: Hypotonicity-induced Ca2+ influx (Fluo-4, FDSS)
- Format: cell-based
- SETUP_CONDITIONS: Flp-In T-REx 293 cells expressing human TRPV4, examples listed under heading 'Human IC50<50 nM'
pIC50: −log10 of the molar value.

molecule=O=C([C@H](O)c1cccc(Cl)c1)N1CCc2nc(C3(c4cccc(-c5cnsc5)c4)CC3)[nH]c(=O)c2C1 observed_measurement="> 7.30"

Return the recorded pIC50 value; entry: O=C([C@H](O)c1cccc(-c2cccc(Cl)c2)c1)N1CCCc2nc(C3(c4cc(-c5ccccc5)cs4)CC3)[nH]c(=O)c2C1
> 7.30

Return the recorded pIC50 value; entry: O=C(C(O)c1cccc(-c2csc(Cl)c2)c1)N1CCc2nc(C3(c4ccccc4)CC3)[nH]c(=O)c2C1 (centres unmarked)
> 7.30

Return the recorded pIC50 value; entry: O=C(/C=C/c1cccc(C(F)(F)F)c1)N1CCCc2nc(C3(c4cccc(Cl)c4)CC3)[nH]c(=O)c2C1
> 7.30

Return the recorded pIC50 value; entry: O=C(C(O)c1cccc(-c2ccc(Cl)cc2)c1)N1CCc2nc(C3(c4cccc(Cl)c4)CC3)[nH]c(=O)c2C1 (centres unmarked)
> 7.30

Return the recorded pIC50 value; entry: O=C(C(O)c1cccc(-c2cccc(C3CC3)c2)c1)N1CCc2nc(C3(c4ccccc4)CC3)[nH]c(=O)c2C1 (centres unmarked)
> 7.30

Return the recorded pIC50 value; entry: O=C([C@H](O)c1cccc(Cl)c1)N1CCc2nc(C3(c4cccs4)CC3)[nH]c(=O)c2C1
> 7.30

* * *

Attribute: pIC50
- EXPERIMENTAL_SYSTEM: human TRPV4 (Homo sapiens)
- Construct: host or cells: tetracycline-inducible Flp-In T-REx 293 cells
- ASSAY_NAME: Hypotonicity-induced Ca2+ influx (Fluo-4, FDSS)
- Format: cell-based
- SETUP_CONDITIONS: Flp-In T-REx 293 cells stably expressing human TRPV4, compounds listed by potency bin (<10 nM Tables 96-1/96-2, <3 nM Table 97)
pIC50: −log10 of the molar value.

Examples with their reported pIC50 follow.
compound="O=C([C@H](O)c1cccc(-c2ccc(Cl)cc2)c1)N1CCc2nc(C3(c4ccccc4)CC3)[nH]c(=O)c2C1 [44-86]" readout_type=pIC50 observed_measurement="> 8.00"
compound="CC(C)c1cccc(C2(c3nc4c(c(=O)[nH]3)CN(C(=O)[C@H](O)c3cccc(C(F)(F)F)c3)CC4)CC2)c1 [27-1]" readout_type=pIC50 observed_measurement="> 8.00"
compound="O=C(Cc1cccc(-c2cccc(Cl)c2)c1)N1CCCc2nc(C3(c4cccc(C5CCCCC5)c4)CC3)[nH]c(=O)c2C1 [31-16]" readout_type=pIC50 observed_measurement="> 8.00"
compound="O=C([C@H](O)c1cccc(C(F)(F)F)c1)N1CCCc2nc(C3(c4cc(C5CCCCC5)cs4)CC3)[nH]c(=O)c2C1 [18-4]" readout_type=pIC50 observed_measurement="> 8.00"
compound="O=C([C@H](O)c1cccc(-c2cc(Cl)cc(OC(F)(F)F)c2)c1)N1CCCc2nc(C3(c4ccccc4)CC3)[nH]c(=O)c2C1 [49-34]" readout_type=pIC50 observed_measurement="> 8.00"
compound="CN(Cc1ccc(Oc2ccccc2)cc1)C(=O)c1csc(C2(c3nc4c(c(=O)[nH]3)CN(C(=O)[C@H](O)c3cccc(C(F)(F)F)c3)CCC4)CC2)c1 [59-11]" readout_type=pIC50 observed_measurement="> 8.00"
compound="O=C([C@H](O)c1cccc(Br)c1)N1CCCc2nc(C3(c4ccccc4)CC3)[nH]c(=O)c2C1 [17-77]" readout_type=pIC50 observed_measurement="> 8.00"
compound="N#Cc1cc(Cl)cc(-c2cccc(CC(=O)N3CCCc4nc(C5(c6cccc(Cl)c6)CC5)[nH]c(=O)c4C3)c2)c1 [17-119]" readout_type=pIC50 observed_measurement="> 8.52"
compound="O=C([C@H](O)c1cccc(C(F)(F)F)c1)N1CCCc2nc(C3(c4cccc(C5=CCN(C(=O)[C@H]6CC[C@H](C(F)(F)F)CC6)CC5)c4)CC3)[nH]c(=O)c2C1 [42-77]" readout_type=pIC50 observed_measurement="> 8.52"
compound="O=C([C@H](O)c1cccc(-c2ccc(OCc3ccccc3)nc2)c1)N1CCc2nc(C3(c4ccccc4)CC3)[nH]c(=O)c2C1 [44-83]" readout_type=pIC50 observed_measurement="> 8.00"

Find the measured pIC50 of N#Cc1ccc(-c2cccc(C3(c4nc5c(c(=O)[nH]4)CN(C(=O)[C@H](O)c4cccc(C(F)(F)F)c4)CCC5)CC3)c2)cc1C#N [42-68] with human TRPV4 (Homo sapiens) as test system.
> 8.00

Find the measured pIC50 of O=C([C@H](O)c1cccc(Cl)c1)N1CCCc2nc(C3(c4cccc(-c5cccc(Cl)c5)c4)CC3)[nH]c(=O)c2C1 [40-6] with human TRPV4 (Homo sapiens) as test system.
> 8.00

Find the measured pIC50 of O=C([C@H](O)c1cccc(-c2cccc(C(F)(F)F)c2)c1)N1CCCc2nc(C3(c4cncc(-c5ccccc5)c4)CC3)[nH]c(=O)c2C1 [56-5] with human TRPV4 (Homo sapiens) as test system.
> 8.00

Measured values drawn from patent US12673946B2 for this set.
